Numbers sourced from ChEMBL document CHEMBL5380791.

- Assay Overview: Tmax in CD-1 mouse at 30 mg/kg, po
- Format: ADME, organism-based
- Cond: in vivo
Attribute: Tmax
Provide only the numeric value, understood in h.

Query: Return Tmax (reported value) for this compound: `CC(C)[C@H]1NC(=O)/C(c2ccccc2)=C\C=C(\c2ccccc2)CNC(=O)CCCCCCCCCCCNC1=O`
Reply: 0.25

Now examine the next entry.
Query: Look up Tmax of `O=C1CCCCCCCCCCCNC(=O)[C@@H](Cc2ccccc2)NC(=O)/C(c2cccc3ccccc23)=C\C=C(\c2ccccc2)CN1` and report it.
Reply: 3

---

- Assay Overview: Cytotoxicity against human L02 cells assessed as reduction in cell viability incubated for 48 hrs by CCK-8 assay
- Type: toxicity, cell-based
Measurement Type: IC50 at 48 h

Query: Check the records and state IC50 at 48 h for `O=C1CCCCCCCCCCCNC(=O)[C@@H](Cc2ccccc2)NC(=O)/C(c2cccc3ccccc23)=C\C=C(\c2ccccc2)CN1`
Reply: > 100 µM

Switching to the query record.
Query: Give the value of IC50 at 48 h reported for the following: `CC(C)[C@H]1NC(=O)/C(c2ccccc2)=C\C=C(\c2ccccc2)CNC(=O)CCCCCCCCCCCNC1=O`
Reply: > 100 µM

---

- Tested on: NCI/ADR-RES
- Assay Overview: Reversal of vinorelbine resistance in human NCI/ADR-RES cells assessed as reduction in cell viability incubated for 72 hrs in presence of vinorelbine (reference value: 6125.7+/-3267.7 nM)
- Type: functional, cell-based
Entries and their pIC50
Just so you know, pIC50 here is -log10 of the concentration in molar units; reply with that number alone.

Here are 2 molecules together with their reported answers.
Query: Give the reported pIC50 for this molecule. `O=C1CCCCCCCCCCCNC(=O)[C@@H](Cc2ccccc2)NC(=O)/C(c2cccc3ccccc23)=C\C=C(\c2ccccc2)CN1`
Reply: 6.94

Query: Assign pIC50 to the following record: `CC(C)[C@H]1NC(=O)/C(c2ccccc2)=C\C=C(\c2ccccc2)CNC(=O)CCCCCCCCCCCNC1=O`
Reply: 6.21

Now take the following molecule into account.
Query: Provide one value: measured pIC50 of COc1ccc(CCN(C)CCCC(C#N)(c2ccc(OC)c(OC)c2)C(C)C)cc1OC (stereo not drawn)
Reply: 6.54

---

- Assay Overview: Half life in CD-1 mouse at 25 mg/kg, ip
- Type: ADME, organism-based
- Cond: in vivo
Recorded half-life for the following compounds
All answers are understood in h, so give the number only.

Query: State its half-life: `O=C1CCCCCCCCCCCNC(=O)[C@@H](Cc2ccccc2)NC(=O)/C(c2cccc3ccccc23)=C\C=C(\c2ccccc2)CN1`
Reply: 11.9

# context switch: different compound, same half-life
Query: Tell me measured half-life for `CC(C)[C@H]1NC(=O)/C(c2ccccc2)=C\C=C(\c2ccccc2)CNC(=O)CCCCCCCCCCCNC1=O` please.
Reply: 11.2

---

- Test system: KBv200
- Assay Overview: Reversal of vinorelbine resistance in human KBv200 cells assessed as reduction in cell viability incubated for 72 hrs in presence of vinorelbine (reference value: 224 to 228.30 nM)
- Assay type: functional, cell-based
- Cond: KBv200, 72 h, read-out: IC50
Measurement Type: IC50
Answer format: value, then unit.

Known results for compounds:
Query: Complete the entry with IC50 for `O=C1CCCCCCCCCCCNC(=O)[C@H](Cc2c[nH]c3ccccc23)NC(=O)/C(c2ccccc2)=C\C=C(\c2ccccc2)CN1`
Reply: 140 nM

Query: Supply IC50 value. Item: `O=C1CCCCCCCCCCCNC(=O)[C@H](Cc2ccccc2)NC(=O)/C(c2cccc3ccccc23)=C\C=C(\c2ccccc2)CN1`
Reply: 0.05 nM

Next, consider the following compound.
Query: Specify measured IC50 for CC(C)[C@@H]1NC(=O)C(c2ccccc2)CCC(c2ccccc2)CNC(=O)CCCCCCCCCCCNC1=O (stereo partly drawn) .
Reply: 3.58 nM

---

Here the recorded pIC50 is given for each entry.
- Tested on: KBv200
- Assay Overview: Reversal of adriamycin resistance in human KBv200 cells assessed as reduction in cell viability incubated for 72 hrs in presence of adriamycin (reference value: 1291.2+/-308.9 nM)
- Format: functional, cell-based
- Cond: KBv200, 72 h
Scale for pIC50: -log10 of concentration given in mol/L; no unit attached.

Solved cases below.
Query: Name the recorded pIC50 of the item COc1ccc(CCN(C)CCCC(C#N)(c2ccc(OC)c(OC)c2)C(C)C)cc1OC (stereo not drawn) [VERAPAMIL] in your answer.
Reply: 6.84

Query: Fill in reported pIC50 for this entry: `CC(C)[C@H]1NC(=O)/C(c2ccccc2)=C\C=C(\c2ccccc2)CNC(=O)CCCCCCCCCCCNC1=O`
Reply: 6.97

Next compound, pIC50 to be filled in.
Query: Give pIC50 for the following compound: `O=C1CCCCCCCCCCCNC(=O)[C@@H](Cc2ccccc2)NC(=O)/C(c2cccc3ccccc23)=C\C=C(\c2ccccc2)CN1`
Reply: 7.43

---

- Assay Overview: Half life in CD-1 mouse at 3 mg/kg, iv
- Assay type: ADME, organism-based
- Cond: in vivo
The entries below are paired with their reported half-life.

Query: Identify measured half-life corresponding to `O=C1CCCCCCCCCCCNC(=O)[C@@H](Cc2ccccc2)NC(=O)/C(c2cccc3ccccc23)=C\C=C(\c2ccccc2)CN1`
Reply: 2.08 h

Field: next compound
Query: Specify measured half-life for `CC(C)[C@H]1NC(=O)/C(c2ccccc2)=C\C=C(\c2ccccc2)CNC(=O)CCCCCCCCCCCNC1=O` .
Reply: 1.23 h

---

Items are presented alongside their recorded AUC(0-inf).
- Assay Overview: AUCinf in CD-1 mouse at 30 mg/kg, po
- Type: ADME, organism-based
- Design: dose 30 mg/kg, route po
- Cond: in vivo
The figure you give is taken to be in ng·h/mL; do not add the unit.

Query: Give the measured AUC(0-inf) for `O=C1CCCCCCCCCCCNC(=O)[C@@H](Cc2ccccc2)NC(=O)/C(c2cccc3ccccc23)=C\C=C(\c2ccccc2)CN1`
Reply: 9490

Now look at this one.
Query: Give AUC(0-inf) for `CC(C)[C@H]1NC(=O)/C(c2ccccc2)=C\C=C(\c2ccccc2)CNC(=O)CCCCCCCCCCCNC1=O`
Reply: 2200

---

Reported AUC(0-inf) by item:
- Assay Overview: AUCinf in CD-1 mouse at 3 mg/kg, iv
- Assay type: ADME, organism-based
- Design: dose 3 mg/kg, route iv
- Cond: in vivo
Note: unit ng·h/mL is implicit; provide only the numeric part.

Query: Check the records and state AUC(0-inf) for `CC(C)[C@H]1NC(=O)/C(c2ccccc2)=C\C=C(\c2ccccc2)CNC(=O)CCCCCCCCCCCNC1=O`
Reply: 888

More entries:
Query: Name the recorded AUC(0-inf) of the molecule listed here: `O=C1CCCCCCCCCCCNC(=O)[C@@H](Cc2ccccc2)NC(=O)/C(c2cccc3ccccc23)=C\C=C(\c2ccccc2)CN1`
Reply: 4350

---

- Assay Overview: Tmax in CD-1 mouse at 25 mg/kg, ip
- Assay type: ADME, organism-based
- Cond: in vivo
Measurement Type: Tmax (h)
Your answer is read as h, so omit the unit and give the number.

Query: Name the recorded Tmax of the item `O=C1CCCCCCCCCCCNC(=O)[C@@H](Cc2ccccc2)NC(=O)/C(c2cccc3ccccc23)=C\C=C(\c2ccccc2)CN1` in your answer.
Reply: 2.67

# input for lookup
Query: Provide Tmax value for the following compound: `CC(C)[C@H]1NC(=O)/C(c2ccccc2)=C\C=C(\c2ccccc2)CNC(=O)CCCCCCCCCCCNC1=O`
Reply: 0.12
